Values were extracted from ChEMBL document CHEMBL4373664.

test system: Human alphaherpesvirus 1; assay: Antiviral activity against HSV-1 infected in African green monkey Vero cells assessed as suppression of viral replication at 0.2 uM after 24 hrs by plaque reduction assay based phase contrast microscopy; format: functional
Calls of active or inactive are those of the source. The calls are words filed in the database; no cut-off is given here.
result-type: log(activity)

- Cc1cc(O)c(=O)c(O)cc1C(=O)c1cccc(-c2ccc3ccccc3c2)c1: 0.14
- Cc1cc(O)c(=O)c(O)cc1C(=O)c1ccco1: -0.1
- Cc1cc(O)c(=O)c(O)cc1C(=O)c1ccc2ccccc2c1: 0.28
- Cc1cc(O)c(=O)c(O)cc1C(=O)c1ccc(Br)cc1: 0.09
- CCCCCCCCCC(=O)c1cc(O)c(=O)c(O)cc1C: inactive
- Cc1cc(O)c(=O)c(O)cc1-c1cccc(-c2cccc3ccccc23)c1: 0.04
- Cc1cc(O)c(=O)c(O)cc1-c1cccc(-c2ccccc2)c1: 0.02
- Cc1cc(O)c(=O)c(O)cc1S(=O)(=O)c1ccccc1: inactive
- Cc1cc(O)c(=O)c(O)cc1C(=O)c1cccc([N+](=O)[O-])c1: 0.23
- Cc1cc(O)c(=O)c(O)cc1S(=O)(=O)c1ccc(-c2ccccc2)cc1: inactive
- Cc1cc(O)c(=O)c(O)cc1C(=O)C1CCCCC1: 0.62
- Cc1cc(O)c(=O)c(O)cc1C(=O)c1cccc(-c2cccc3ccccc23)c1: 0.15
- CCCCCCCCCCCC(=O)c1cc(O)c(=O)c(O)cc1C: 0.29
- Cc1cc(O)c(=O)c(O)cc1-c1ccc(-c2ccccc2)cc1: -0.05
- COc1ccc(C(=O)c2cc(O)c(=O)c(O)cc2C)cc1: 0.02
- CC(=O)c1cc(O)c(=O)c(O)cc1C: inactive
- Cc1cc(O)c(=O)c(O)cc1C(=O)c1cccc(Br)c1: 0.09
- Cc1cc(O)c(=O)c(O)cc1-c1ccc(-c2ccc3ccccc3c2)cc1: -0.03
- Cc1cc(O)c(=O)c(O)cc1-c1cccc(-c2ccc3ccccc3c2)c1: 0.06
- Cc1cc(O)c(=O)c(O)cc1C(=O)c1ccccc1O: 0.1
- Cc1cc(O)c(=O)c(O)cc1C(=O)c1ccccc1: inactive
- Cc1cc(O)c(=O)c(O)cc1C(=O)c1cccs1: 0.16
- CCCCCCCCCCCCCC(=O)c1cc(O)c(=O)c(O)cc1C: 0.36
- Cc1cc(O)c(=O)c(O)cc1C(=O)c1ccc([N+](=O)[O-])cc1: 0.03

====

experiment: Inhibition of NTS in HSV-1 infected in African green monkey Vero cells assessed as suppression of viral replication by measuring viral titer after 24 hrs by plaque reduction assay based phase contrast microscopy; format: cell-based; conditions: Human alphaherpesvirus 1, Vero
EC50 listing for selected molecules.
result-type: EC50 (nM)

- C=C(C)[C@@H]1CCc2c(c(C)cc(O)c(=O)c2O)C1: 350
- CC(C)=CCc1ccc(=O)c(O)cc1C(C)C: 240
- CC(C)c1ccc(O)c(=O)c(O)c1 [BETA-THUJAPLICINOL]: 2000
- Cc1cc(O)c(=O)c(O)cc1-c1ccc(-c2ccccc2)cc1: 180
- Cc1cc(O)c(=O)c(O)cc1C(=O)c1ccc(-c2ccccc2)cc1: 120

====

assay: Cytotoxicity against African green monkey Vero cells incubated for 24 hrs by MTT assay; format: cell-based; settings: chlorocebus sabaeus
result-type: CC50 at 24 h (µM)

* CC(C)=CCc1ccc(=O)c(O)cc1C(C)C | 100
* Cc1cc(O)c(=O)c(O)cc1C(=O)C1CCCCC1 | 73
* CCCCCCCCCCCC(=O)c1cc(O)c(=O)c(O)cc1C | 95
* CCCCCCCCCCCCCC(=O)c1cc(O)c(=O)c(O)cc1C | 91
* CCCCCCCC(=O)c1cc(O)c(=O)c(O)cc1C | 81
* Cc1cc(O)c(=O)c(O)cc1C(=O)C(C)C | 91
* C=C(C)[C@@H]1CCc2c(c(C)cc(O)c(=O)c2O)C1 | 100
